tested on: HL-60(TB) leukemia; assay: NCI-60 one-dose screen, 48 h; details: 10 µM unless noted
About 83,000 compounds went through this panel and 20% of them were active in at least one assay; those are over-represented in the sample as a whole. The source made the active and inactive calls. The calls were made as follows: active = growth percent below 10; inactive = the rest.
The reply should name one outcome from active, inactive

Molecule	Cat
COc1ccc2c(c1)C(C)Cc1c(ncnc1-n1cnc3ccccc31)N2C (configuration not stated)	active
CC(=O)Nc1ccc(S(=O)(=O)N/N=C(\C)c2ccc(C)cc2C)cc1	inactive
CC(C)(C)C(=O)Nc1nc2c(s1)CCc1ccn(S(=O)(=O)c3ccccc3)c1-2	inactive

Problem: What classification did O=C1Nc2ccc(Br)cc2C1=O end up with in this test?
Result: inactive
